- assayComment: physchem
- measurementSetup: water
propertyMeasured: solubility (µg/mL)
Use µg/mL as the unit, but write only the number.

In [3]: df
Out[3]:
              linenotation  measuredvalue
0  Cn1c2ccc(F)cc2c2ccncc21           29.7

Q) Provide measured solubility value, entry: Cn1c2ccccc2c2ccncc21
A) 168
